Test system: HTT mRNA alternative junction (AJ)
Assay: Splicing RT-qPCR assay, increase of HTT alternative junction (AJ) mRNA
Type: cell-based
Conditions: A673 or K562 cells, 24 hours compound treatment, concentration having 50% response in AJ increase
Where a name gives a salt, the structure may show the parent alone.
Each entry below carries its recorded AC50.
quantity-kind: AC50

INSERT INTO assay_data (molecule, target_desc, result) VALUES
  ('Cc1cn2cc(NC(=O)c3ccc(N4CCN(C)C(C)C4)c4cc(C)oc34)cc(F)c2n1 (stereo not shown) [Compound 191]', 'HTT mRNA alternative junction (AJ)', '1000 to 10000 nM'),
  ('Cc1cn2cc(NC(=O)c3ccc(C4C[C@@H](C)N[C@@H](C)C4)c4cn(C)nc34)cc(F)c2n1 (stereo partly shown) [Compound 211]', 'HTT mRNA alternative junction (AJ)', '1000 to 10000 nM'),
  ('Cc1cn2cc(NC(=O)c3ccc(N4CC5(CNC5)C4)c4cn(C)nc34)cc(F)c2n1 [Compound 242]', 'HTT mRNA alternative junction (AJ)', '1000 to 10000 nM'),
  ('Cc1cn2cc(NC(=O)c3ccc(C4CCNCC4)c4c3OCC4)cc(F)c2n1 [Compound 188]', 'HTT mRNA alternative junction (AJ)', '> 10000 nM'),
  ('Cc1cn2cc(NC(=O)c3ccc(N(C)C4CCN(C)CC4)c4cc(C)oc34)cc(F)c2n1 [Compound 200]', 'HTT mRNA alternative junction (AJ)', '1000 to 10000 nM'),
  ('Cc1cn2cc(NC(=O)c3ccc(N4CCNC(C)C4)c4cn(C)nc34)cc(Cl)c2n1 (stereo not shown) [Compound 277]', 'HTT mRNA alternative junction (AJ)', '100 to 1000 nM'),
  ('Cc1cn2cc(NC(=O)c3ccc(N4CCNCC4)c4cn(C)nc34)ncc2n1 [Compound 246]', 'HTT mRNA alternative junction (AJ)', '1000 to 10000 nM'),
  ('Cn1cc2c(F)cc(NC(=O)c3ccc(N4CCNCC4)c4cn(C)nc34)cc2n1 [Compound 231]', 'HTT mRNA alternative junction (AJ)', '> 10000 nM'),
  ('Cc1cn2cc(NC(=O)c3ccc(N4C[C@H]5CC[C@@H](C4)N5)c4cn(C)nc34)cc(F)c2n1 [Compound 260]', 'HTT mRNA alternative junction (AJ)', '100 to 1000 nM'),
  ('Cc1cn2cc(NC(=O)c3ccc(C4CCNCC4)c4cc(C)oc34)cc(F)c2n1 [Compound 145]', 'HTT mRNA alternative junction (AJ)', '1000 to 10000 nM'),
  ('Cc1cn2cc(NC(=O)c3ccc(N4CCNCC4)c4oc(C)nc34)cc(F)c2n1 [Compound 141, hydrochloride]', 'HTT mRNA alternative junction (AJ)', '< 100 nM'),
  ('Cc1cn2cc(NC(=O)c3ccc(N4CCNC(C)(C)C4)c4cc(C)oc34)cc(F)c2n1 [Compound 193]', 'HTT mRNA alternative junction (AJ)', '1000 to 10000 nM'),
  ('Cc1cc2c(N3CCNCC3)ccc(C(=O)Nc3cn[nH]c3)c2o1 [Compound 268]', 'HTT mRNA alternative junction (AJ)', '> 10000 nM'),
  ('Cc1cn2cc(NC(=O)c3ccc(N4CC5(CN(C)C5)C4)c4cn(C)nc34)cc(F)c2n1 [Compound 243]', 'HTT mRNA alternative junction (AJ)', '100 to 1000 nM'),
  ('Cc1cn2cc(NC(=O)c3ccc(N4CCNCC4)c4cn(C)nc34)cc(F)c2n1 [Compound 143]', 'HTT mRNA alternative junction (AJ)', '100 to 1000 nM'),
  ('Cc1cn2cc(NC(=O)c3ccc(C4CC(C)(C)NC(C)(C)C4)c4cn(C)nc34)cc(F)c2n1 [Compound 212]', 'HTT mRNA alternative junction (AJ)', '> 10000 nM');
